- target.or.system: Neuraminidase (Influenza A virus, UniProt B4URF0)
- assay.procedure: Inhibition of influenza A virus H1N1 Neuraminidase using 4-methylumbelliferyl-alpha-D-N-acetylneuraminic acid sodium salt hydrate substrate
Measured IC50 by item

>  <molecule>
CC(C)=CCc1cc(/C=C/C(=O)c2ccc(O)cc2O)ccc1O

>  <IC50>
66.3 µM

$$$$
>  <molecule>
CC(C)=CCc1cc(/C=C/C(=O)c2ccc(O)cc2O)cc(O)c1O

>  <IC50>
64.4 µM

$$$$
>  <molecule>
C=C(C)C(O)CC1=c2occ(-c3ccc(O)cc3)c(=O)c2=C(O)C2C=CC(C)(C)OC12 (centres undefined)

>  <IC50>
> 118 µM

$$$$
>  <molecule>
CC(C)=CCc1c(O)cc2occ(-c3ccc(O)cc3)c(=O)c2c1O

>  <IC50>
> 148 µM

$$$$
>  <molecule>
CC1(C)C=Cc2c(c(CO)c3occ(-c4ccc(O)cc4)c(=O)c3c2O)O1

>  <IC50>
> 136 µM

$$$$
>  <molecule>
COc1ccc(/C(C=O)=C\c2ccc(O)cc2OC)c(O)c1

>  <IC50>
29.3 µM

$$$$
>  <molecule>
CC1(C)C=Cc2cc(-c3coc4cc(O)ccc4c3=O)ccc2O1

>  <IC50>
> 156 µM

$$$$
>  <molecule>
CC(C)=CCc1cc(-c2coc3cc(O)cc(O)c3c2=O)ccc1O

>  <IC50>
> 148 µM

$$$$
>  <molecule>
CC(C)=CCc1cc(/C=C/C(=O)c2ccc(O)cc2O)cc(CC=C(C)C)c1O

>  <IC50>
67.4 µM

$$$$

----------
The entries below are paired with their reported IC50.
- target.or.system: Neuraminidase (Influenza A virus, UniProt B4URF0)
- assay.procedure: Inhibition of influenza A virus H9N2 Neuraminidase using 4-methylumbelliferyl-alpha-D-N-acetylneuraminic acid sodium salt hydrate substrate

>  <compound>
CC1(C)C=Cc2cc(-c3coc4cc(O)ccc4c3=O)ccc2O1

>  <IC50>
> 156 µM

$$$$
>  <compound>
COc1ccc(/C(C=O)=C\c2ccc(O)cc2OC)c(O)c1

>  <IC50>
23.9 µM

$$$$
>  <compound>
CC1(C)C=Cc2c(c(CO)c3occ(-c4ccc(O)cc4)c(=O)c3c2O)O1

>  <IC50>
> 136 µM

$$$$
>  <compound>
C=C(C)C(O)CC1=c2occ(-c3ccc(O)cc3)c(=O)c2=C(O)C2C=CC(C)(C)OC12 (centres undefined)

>  <IC50>
> 118 µM

$$$$

----------
- target.or.system: Neuraminidase (Influenza A virus)
- assay.procedure: Inhibition of influenza A virus H9N2 Neuraminidase using 4-methylumbelliferyl-alpha-D-N-acetylneuraminic acid sodium salt hydrate substrate
Each entry below carries its recorded IC50.

>  <smiles.record>
CC(C)=CCc1cc(/C=C/C(=O)c2ccc(O)cc2O)cc(CC=C(C)C)c1O

>  <result.modifier>
=

>  <IC50, µM>
62.6

$$$$
>  <smiles.record>
CC(C)=CCc1cc(/C=C/C(=O)c2ccc(O)cc2O)ccc1O

>  <result.modifier>
=

>  <IC50, µM>
61.7

$$$$
>  <smiles.record>
CC(C)=CCc1c(O)cc2occ(-c3ccc(O)cc3)c(=O)c2c1O

>  <result.modifier>
>

>  <IC50, µM>
148

$$$$
>  <smiles.record>
CC(C)=CCc1cc(-c2coc3cc(O)cc(O)c3c2=O)ccc1O

>  <result.modifier>
>

>  <IC50, µM>
148

$$$$
>  <smiles.record>
CC(C)=CCc1cc(/C=C/C(=O)c2ccc(O)cc2O)cc(O)c1O

>  <result.modifier>
=

>  <IC50, µM>
60.1

$$$$

----------
- target.or.system: Neuraminidase (Influenza A virus, UniProt B4URF0)
pKi: −log10 of the molar value.

>  <molecule>
COc1ccc(/C(C=O)=C\c2ccc(O)cc2OC)c(O)c1 [ERYTHRADDISON B]

>  <pKi>
4.49

$$$$
>  <molecule>
CC(C)=CCc1cc(/C=C/C(=O)c2ccc(O)cc2O)cc(O)c1O [5'-PRENYLBUTEIN]

>  <pKi>
4.18

$$$$
>  <molecule>
CC(C)=CCc1cc(/C=C/C(=O)c2ccc(O)cc2O)cc(CC=C(C)C)c1O [ABYSSINONE VI]

>  <pKi>
4.15

$$$$
>  <molecule>
CC(C)=CCc1cc(/C=C/C(=O)c2ccc(O)cc2O)ccc1O [LICOAGROCHALCONE A]

>  <pKi>
4.16

$$$$
